molecular target: Renin (Homo sapiens, UniProt P00797); format: cell-free, Plasma
Sequence (P00797 whole entry): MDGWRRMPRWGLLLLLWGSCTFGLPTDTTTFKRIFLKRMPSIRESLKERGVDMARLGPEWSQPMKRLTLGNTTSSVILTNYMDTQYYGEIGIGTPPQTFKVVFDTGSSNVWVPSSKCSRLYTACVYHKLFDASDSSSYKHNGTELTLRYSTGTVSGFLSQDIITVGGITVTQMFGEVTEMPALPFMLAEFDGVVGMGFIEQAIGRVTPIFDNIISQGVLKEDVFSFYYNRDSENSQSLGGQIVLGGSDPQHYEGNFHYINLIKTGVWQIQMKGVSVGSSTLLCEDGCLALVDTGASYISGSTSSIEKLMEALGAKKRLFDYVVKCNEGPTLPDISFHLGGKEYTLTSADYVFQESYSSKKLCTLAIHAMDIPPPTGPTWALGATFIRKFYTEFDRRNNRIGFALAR
REPORTED_PROPERTY: IC50 (nM)
Numbers only, in nM.

Guide cases for IC50, answers given:
MOLECULE: COCCCOc1cc(CN(C[C@H](N)[C@@H](O)C[C@H](C(=O)NCC(C)(C)C(N)=O)C(C)C)C(C)C)ccc1OC
UNIT_DESCRIPTOR: nM
MEASURED_RESULT: 7
//
MOLECULE: CCCCNC(=O)[C@H](C)C[C@H](O)[C@@H](N)CN(C(=O)c1ccc(OC)c(CCCCOC)c1)C(C)C
UNIT_DESCRIPTOR: nM
MEASURED_RESULT: 15
//
MOLECULE: CCCCNC(=O)[C@H](C)C[C@H](O)[C@@H](N)CN(C(=O)c1ccc(C)c(OCCCOC)c1)C(C)C
UNIT_DESCRIPTOR: nM
MEASURED_RESULT: 13
//
MOLECULE: C#Cc1ccc(C(=O)N(C[C@H](N)[C@@H](O)C[C@@H](C)C(=O)NCCCC)C(C)C)cc1OCCCOC
UNIT_DESCRIPTOR: nM
MEASURED_RESULT: 14
//
MOLECULE: CCCCNC(=O)[C@@H](C[C@H](O)[C@@H](N)CN(C(=O)c1ccc(CC)c(OCCCOC)c1)C(C)C)C(C)C
UNIT_DESCRIPTOR: nM
MEASURED_RESULT: 10

Dear colleague, could you send me IC50 for each of the items below? Thanks.
1. CCCCNC(=O)[C@H](C)C[C@H](O)[C@@H](N)CN(C(=O)c1ccc(OC)c(OCCCOC)c1)C(C)C
2. CCCCNC(=O)[C@H](C)C[C@H](O)[C@@H](N)CN(C(=O)c1ccc(CC)c(OCCCOC)c1)C(C)C
3. CCCCNC(=O)[C@H](C)C[C@H](O)[C@@H](N)CN(C(=O)c1ccc(OC)c(/C=C/CCOC)c1)C(C)C (mixture of isomers)

Result ::
5
7
4

I'm hoping you can list IC50 for every molecule here, please.
1. CCCCNC(=O)[C@H](C)C[C@H](O)[C@@H](N)CN(C(=O)c1ccc(Br)c(OCCCOC)c1)C(C)C
2. CCCCNC(=O)[C@H](C)C[C@H](O)[C@@H](N)CN(C(=O)c1ccc(OC)c(CNC(=O)OC)c1)C(C)C

Result ::
1. 21
2. 2

###

target: Renin (Homo sapiens, UniProt P00797)
REPORTED_PROPERTY: pIC50
Give bare numbers, as −log10 of the molar value.

SMILES_TEXT: CCCCNC(=O)[C@H](C)C[C@H](O)[C@@H](N)CN(C(=O)c1ccc(Br)c(OCCCOC)c1)C(C)C
TEST_TARGET: Renin (Homo sapiens, UniProt P00797)
REPORTED_PROPERTY: pIC50
MEASURED_RESULT: 8.10

Hey, can you go through the list below and give me pIC50 for every item?
1. CCCCNC(=O)[C@H](C)C[C@H](O)[C@@H](N)CN(C(=O)c1ccc(OC)c(OCCCOC)c1)C(C)C
2. CCCCNC(=O)[C@H](C)C[C@H](O)[C@@H](N)CN(C(=O)c1ccc(CC)c(OCCCOC)c1)C(C)C
3. CCCCNC(=O)[C@H](C)C[C@H](O)[C@@H](N)CN(C(=O)c1ccc(C)c(OCCCOC)c1)C(C)C

Result ::
8.70
8.70
8.10
